Collected IC50 values appear next to each entry.
molecular target: Protein AF-9 (Homo sapiens) (UniProt P42568); experiment: inhibitors of AF9 AHD–DOT1L interaction, dose response, biochemical, AlphaLISA, MBP-tagged AHD, biotinylated peptide (AID 1794801); details: MBP-AF9 AHD and biotin-DOT1L peptide
Sequence (P42568 whole entry, looked up): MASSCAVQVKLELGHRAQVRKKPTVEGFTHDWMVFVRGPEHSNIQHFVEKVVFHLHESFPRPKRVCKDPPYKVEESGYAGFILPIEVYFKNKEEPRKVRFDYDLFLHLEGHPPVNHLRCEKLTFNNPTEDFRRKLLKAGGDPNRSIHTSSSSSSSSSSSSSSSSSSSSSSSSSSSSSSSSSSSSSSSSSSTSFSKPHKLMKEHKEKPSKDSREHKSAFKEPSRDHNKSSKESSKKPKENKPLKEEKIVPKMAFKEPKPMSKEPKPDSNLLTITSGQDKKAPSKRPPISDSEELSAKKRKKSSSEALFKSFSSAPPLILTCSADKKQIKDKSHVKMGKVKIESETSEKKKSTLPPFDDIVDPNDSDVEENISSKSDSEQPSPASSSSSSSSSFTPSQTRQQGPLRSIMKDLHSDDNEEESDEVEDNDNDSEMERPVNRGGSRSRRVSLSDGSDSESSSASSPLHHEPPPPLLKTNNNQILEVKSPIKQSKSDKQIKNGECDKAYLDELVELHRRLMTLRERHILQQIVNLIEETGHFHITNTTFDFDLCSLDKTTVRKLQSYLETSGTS

>>> measured_result("O=C(NCC1CCNCC1)c1c[nH]c2cc(-c3ccc(N4CCCCC4)cc3)ccc12")
"4500 nM"
>>> measured_result("O=C(NCC1CCNCC1)c1cc2ccc(-c3ccc(N4CCCCC4)cc3)cc2s1")
"1600 nM"

Shifting focus to the molecule that follows.
Provide IC50 value for the following molecule: O=C(NCC1CCNCC1)c1cc2ccc(Nc3ccc(N4CCCCC4)cc3)cc2s1
2300 nM
